The reported numbers originate from the supplement of paper PMC6992640.

- System: HCI03 (cells of an ER-positive luminal breast cancer xenograft);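 note: PDX cells carrying CMV promoter-driven luciferase, viability read as total photon flux per second by IVIS imaging following D-luciferin, vehicle control 0.1% DMSO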
- PROTOCOL SUMMARY: cell viability (% of vehicle); higher = less cytotoxic
- CONDITION INFO: 10 µM; 72 h
Output Yes for records whose cell viability is lower than 100, No for records at or above 100.

QUERY: Answer whether the molecule CC1(C)SC2C(NC(=O)C(N)c3ccc(O)cc3)C(=O)N2C1C(=O)O (configuration not stated) has cell viability strictly less than 100
RESULT: No

QUERY: Problem: For the molecule Nc1nc(=O)c2ncn(COCCO)c2[nH]1 , is cell viability under 100?
RESULT: No

QUERY: Decide: cell viability of CCC(Nc1ncnc2nc[nH]c12)c1nc2cccc(F)c2c(=O)n1-c1ccccc1 (configuration not stated) strictly below 100?
RESULT: Yes

QUERY: Take the molecule CS(=O)(=O)CCNCc1ccc(-c2ccc3ncnc(Nc4ccc(OCc5cccc(F)c5)c(Cl)c4)c3c2)o1.Cc1ccc(S(=O)(=O)O)cc1.Cc1ccc(S(=O)(=O)O)cc1 [Lapatinib Ditosylate] and say whether its cell viability is less than 100.
RESULT: Yes

QUERY: Dear reviewer, please state whether CC[C@@]1(O)C(=O)OCc2c1cc1n(c2=O)Cc2cc3c(CN(C)C)c(O)ccc3nc2-1 has cell viability strictly beneath 100.
RESULT: No

QUERY: Is cell viability of O=C(CCCN1CC=C(n2c(=O)[nH]c3ccccc32)CC1)c1ccc(F)cc1 strictly below 100?
RESULT: No

QUERY: Quick check: does COc1ccc(CN(CCN(C)C)c2ccccn2)cc1.O=C(O)/C=C\C(=O)O [Mepyramine maleate] have cell viability under 100?
RESULT: No
